The reported measurements were obtained from patent US7078403B1.

- System: HRV type 2
- experimental protocol: Inhibition of viral cytopathic effect (CPE), visual scoring or neutral red, HRV type 2 in KB cells
- Type: cell-based, human rhinovirus
- stated conditions: HRV type 2 in KB cells, CPE inhibition

{"molecule": "C=CCON=Cc1cc(C)c(OCCCc2cc(C)no2)c(C)c1 [Compound 23]", "value relation sign": "<", "Activity on Rhinovirus Type 2 EC50 [µg/mL]": 0.05}
{"molecule": "CON=Cc1ccc(OC)c(OCCC2CCN(c3ccc(Cl)nn3)CC2)c1 [Compound 17]", "value relation sign": ">", "Activity on Rhinovirus Type 2 EC50 [µg/mL]": 1}
{"molecule": "CON=Cc1ccc(OCCC2CCN(c3ccc(Cl)nn3)CC2)c(C)c1 [Compound 44]", "value relation sign": "=", "Activity on Rhinovirus Type 2 EC50 [µg/mL]": 0.026}
{"molecule": "CCON=C(C)c1cc(OC)c(OCCC2CCN(c3ccc(Cl)nn3)CC2)c(OC)c1 [Compound 6]", "value relation sign": "=", "Activity on Rhinovirus Type 2 EC50 [µg/mL]": 0.1}
{"molecule": "CCCON=Cc1ccc(OCCC2CCN(c3ccc(Cl)nn3)CC2)cc1 [Compound 11]", "value relation sign": "=", "Activity on Rhinovirus Type 2 EC50 [µg/mL]": 0.004}
{"molecule": "CCC(=NOC)c1ccc(OCCC2CCN(c3ccc(Cl)nn3)CC2)cc1 [Compound 10]", "value relation sign": "=", "Activity on Rhinovirus Type 2 EC50 [µg/mL]": 0.4}
{"molecule": "CCON=Cc1ccc(OCCC2CCN(c3ccc(Cl)nn3)CC2)cc1 [Compound 57]", "value relation sign": "=", "Activity on Rhinovirus Type 2 EC50 [µg/mL]": 0.00025}
{"molecule": "Clc1ccc(N2CCC(CCOc3ccc(C=NOCc4ccccc4)cc3)CC2)nn1 [Compound 15]", "value relation sign": "=", "Activity on Rhinovirus Type 2 EC50 [µg/mL]": 0.9}
{"molecule": "CCON=Cc1cc(C)c(OCCC2CCN(c3ccc(Cl)nn3)CC2)c(C)c1 [Compound 45]", "value relation sign": "=", "Activity on Rhinovirus Type 2 EC50 [µg/mL]": 0.03}
{"molecule": "CCON=Cc1ccc(OCCC2CCN(c3ccc(Cl)nn3)CC2)c(C)c1 [Compound 42]", "value relation sign": "=", "Activity on Rhinovirus Type 2 EC50 [µg/mL]": 0.006}
{"molecule": "CON=C(C)c1ccc(OCCC2CCN(c3ccc(C)nn3)CC2)cc1 [Compound 9]", "value relation sign": "=", "Activity on Rhinovirus Type 2 EC50 [µg/mL]": 0.08}
{"molecule": "Cc1cc(CCCOc2c(C)cc(C=NOCc3ccccc3)cc2C)on1 [Compound 25]", "value relation sign": "=", "Activity on Rhinovirus Type 2 EC50 [µg/mL]": 0.5}
{"molecule": "CON=Cc1ccc(OCCC2CCN(c3ccc(Cl)nn3)CC2)c(OC)c1 [Compound 33]", "value relation sign": "=", "Activity on Rhinovirus Type 2 EC50 [µg/mL]": 0.04}
{"molecule": "CC(C)ON=Cc1ccc(OCCC2CCN(c3ccc(Cl)nn3)CC2)cc1 [Compound 12]", "value relation sign": "=", "Activity on Rhinovirus Type 2 EC50 [µg/mL]": 0.02}
{"molecule": "CCON=Cc1ccc(OCC2CCN(c3ccc(Cl)nn3)CC2)cc1 [Compound 31]", "value relation sign": "=", "Activity on Rhinovirus Type 2 EC50 [µg/mL]": 0.003}
{"molecule": "CCON=C(C)c1ccc(OCCC2CCN(c3ccc(Cl)nn3)CC2)cc1 [Compound 3]", "value relation sign": "=", "Activity on Rhinovirus Type 2 EC50 [µg/mL]": 0.01}
{"molecule": "CCON=Cc1ccc(OCCC2CCN(c3ccc(Cl)nn3)CC2)cc1O [Compound 37]", "value relation sign": "=", "Activity on Rhinovirus Type 2 EC50 [µg/mL]": 0.048}
{"molecule": "CON=Cc1ccc(OCCC2CCN(c3ccc(Cl)nn3)CC2)cc1 [Compound 8]", "value relation sign": "=", "Activity on Rhinovirus Type 2 EC50 [µg/mL]": 0.03}
{"molecule": "CCON=Cc1ccc(OCCC2CCN(c3ccc(OC)nn3)CC2)cc1 [Compound 26]", "value relation sign": "=", "Activity on Rhinovirus Type 2 EC50 [µg/mL]": 0.16}
